Test system: HCT-116
procedureText: NCI tumour cell line growth inhibition, 48 h
Calls of active or inactive are those of the source. No stated cut-off is given here; in the data, active = GI50 up to about 1.1 µM and inactive = higher.
# reported GI50; entries follow

Study these solved cases before continuing.
Cc1ccc(C(c2c(O)c3ccccc3n(-c3ccccc3)c2=O)c2c(O)c3ccccc3n(-c3ccccc3)c2=O)cc1 > 100 µM (inactive)
Cc1cc(C#N)c(Nc2ccc(F)cc2[N+](=O)[O-])s1 > 100 µM (inactive)
C[C@H](CCC(=O)O)[C@H]1CC[C@H]2[C@@H]3[C@@H](O)C[C@@H]4C[C@H](O)CC[C@]4(C)[C@H]3C[C@H](O)[C@]12C > 100 µM (inactive)

Would you kindly look at the next entry?
Entry COc1ccc2[nH]c3c(C)c4c(c(C)c3c2c1)CN(C)C=C4 : reported GI50 = ? 2.61 µM (inactive)

* * *

Test system: TK-10
procedureText: NCI tumour cell line growth inhibition, 48 h
Active and inactive are the calls of the source. Rule as the data show it: active = GI50 up to about 1.1 µM and inactive = higher.
Your answer must be one of the following: active, inactive

compound	category
COc1ccc(Cc2cc(Cc3ccc(OC)cc3)cc(Cc3ccc(OC)cc3)c2)cc1	inactive
CN(C(=O)c1ccco1)C(=S)N1CCN(c2ccccn2)CC1	inactive
CCCCc1ccc(Nc2nc(S)c3ncn(COCCO)c3n2)cc1	inactive
C[C@@H](NC(=O)[C@@H]1C[C@]1(C)CO)c1cccc2ccccc12	inactive
CC1(C)CN=C(c2ccc3ccccc3c2O)N1	inactive

For Cc1nn(C(=O)Cc2ccccc2)c2c1C(c1ccccc1O)SC(=N)N2 (stereo not given) , which call appears in the assay record? inactive

For C[C@@]12C(=O)OC(=O)[C@]1(C)[C@H]1CC[C@@H]2O1 , which call appears in the assay record? active

For Cc1cccc(Nc2nc3ccccc3nc2NS(=O)(=O)c2ccc(N)cc2)c1 , which call appears in the assay record? inactive

For CC1OC(OC2C[C@](O)(C(=O)CF)Cc3c(O)c4c(c(O)c32)C(=O)c2ccccc2C4=O)CC(N)C1O (stereo not given in full) , which call appears in the assay record? active

For O=c1/c(=C/c2ccc(-c3ccc(Cl)cc3Cl)o2)sc2n1[C@@H](c1ccc3c(c1)OCO3)C=C(c1cc(F)c(Cl)cc1Cl)N=2 , which call appears in the assay record? inactive

For C=C1CC(C)(COc2ccc3c(C)c(Cl)c(=O)oc3c2)OC1=O (stereo not given) , which call appears in the assay record? active

* * *

Tested on: RPMI-8226
procedureText: NCI tumour cell line growth inhibition, 48 h
The source made the active and inactive calls. No stated cut-off is given here; in the data, active = GI50 up to about 1.1 µM and inactive = higher.
Your answer must be one of the following: YES for active, NO for inactive

Consider the following illustrative entries.
compound	category
O=C(O)CCc1nc2c(n1Cc1ccccc1)C(=O)c1ccccc1C2=O	NO
O=C1c2c(Br)sc(Br)c2[C@H]2NC(=S)O[C@@H]12	NO
CN1CCN(C(=S)N(C(=O)c2ccco2)C2CCCCC2)CC1	NO

For Cc1cccc(C)c1NC(=O)/C(Cl)=C(/Cl)C(=O)O , which call appears in the assay record? NO

For COc1cccc(-c2cc(O)c3cc(Cl)cnc3n2)c1 , which call appears in the assay record? YES

* * *

Tested on: SF-539
procedureText: NCI tumour cell line growth inhibition, 48 h
Calls of active or inactive are those of the source. Cut-off read from the data, not from the text of the source: active = GI50 up to about 1.1 µM and inactive = higher.
Your answer must be one of the following: active, inactive

Consider the following illustrative entries.
compound	category
COC(=O)C1(NC(=O)C(Cc2ccccc2)N(C(=O)OC(C)(C)C)C(=O)OC(C)(C)C)CCCC1 (stereo unspecified)	inactive
COC1O[C@H]2[C@H]3[C@@H]1[C@@H](OS(=O)(=O)c1ccc(C)cc1)C(=O)N3C[C@H]2O (stereo partly specified)	inactive
c1ccc(-c2c(-c3cccs3)[nH]c(-c3cccs3)c2-c2ccccn2)nc1	inactive
COc1ccc(-c2c(N)[n+]([O-])c3ccccc3[n+]2[O-])cc1OC	inactive
CC(=O)Oc1c(C)c2c(c3ccccc13)OC(C)(C)C2	inactive

For Cc1ccc(NC(=O)c2ccccc2C(=O)O)cc1C , which call appears in the assay record? inactive

For CCOC(=O)CO/N=C1/C(=C2/C(=O)Nc3ccccc32)Nc2ccccc21 , which call appears in the assay record? inactive

For COc1ccc2[nH]c3c(C)c4c(c(C)c3c2c1)CN(C)C=C4 , which call appears in the assay record? active

For CCOc1cc2c(c(OCC)c1O)CC[C@@H]1[C@@H]2CC[C@]2(C)[C@@H](O)CC[C@@H]12 , which call appears in the assay record? inactive

For NC1=NC(c2ccccc2)CC(c2cc(Cl)cc(Br)c2O)=N1 (stereo unspecified) , which call appears in the assay record? inactive

For COc1cc(C(O)C(=O)c2nc3ccc([N+](=O)[O-])cc3nc2O)ccc1O (stereo unspecified) , which call appears in the assay record? inactive

For COc1ccc(C2SCC(=O)N2c2ccc(-n3c(-c4ccccc4)nc4ccccc4c3=O)cc2)cc1OC (stereo unspecified) , which call appears in the assay record? inactive

* * *

Test system: NCI-H522
procedureText: NCI tumour cell line growth inhibition, 48 h
Activity calls are given as the source filed them. Cut-off read from the data, not from the text of the source: active = GI50 up to about 1.1 µM and inactive = higher.
Your answer must be one of the following: true = active, false = inactive

compound	category
O=C1c2ccccc2-c2nnc3c(c21)Cc1ccccc1C3	false
CC(NC(CC12CC3CC(CC(C3)C1)C2)C(N)=O)c1ccccc1 (stereo not drawn)	false
CNc1ccc(C(=O)CC(O)CCC(C)C2OC(=O)CC(O)CC(=O)CC(O)CC(O)CC(O)CC(O)CC3(O)CC(O)C(C(=O)NCCN4CCOCC4)C(CC(OC4OC(C)C(O)C(N)C4O)\C=C/C=C\C=C/C=C/C=C/C=C\C=C/C2C)O3)cc1 (stereo not drawn)	true
COc1cccc2c1C(=O)c1c(O)c3c(c(O)c1C2=O)C[C@](O)(C(=O)CO)CC3OC1CC(N)C(OC2CCCCO2)C(C)O1 (stereo partly drawn)	true
NC(CCCNc1ccc(O)cc1)C(=O)O (stereo not drawn)	false

For CC1CCC2(OC1)OC1CC3C4CCC5CC(O)CCC5(C)C4CC(=O)OC3(C)C1C2C (stereo not drawn) , which call appears in the assay record? false

For COc1ccc2c(c1OC)C(=O)c1cnccc1C2=O , which call appears in the assay record? false

For CCCCN(CCCC)CC(C(=O)Nc1ccc([N+](=O)[O-])cc1[N+](=O)[O-])/C(C)=N\NC(=O)c1ccncc1 (stereo not drawn) , which call appears in the assay record? false

* * *

System: Hs-578T
procedureText: NCI tumour cell line growth inhibition, 48 h
The source made the active and inactive calls. Rule as the data show it: active = GI50 up to about 1.1 µM and inactive = higher.
Your answer must be one of the following: Y (active), N (inactive)

molecule	category
COc1ccc2c(c1)CCCN2S(=O)(=O)c1ccccc1[N+](=O)[O-]	N
NC(=S)N/N=C1\CCCCC1C(O)(C(F)(F)Cl)C(F)(F)Cl (stereo not given)	N
C/C(=N/NC(=S)Nc1ccccc1C)c1ccccn1	N
COC(=O)Nc1nc(=O)c2cc(OC)c(OC)cc2[nH]1	N
CC12CCCCC1=[N+]([O-])C(C)(C)N2O (stereo not given)	N

For C1CCSCCCCSCCCCSCCCCSC1 , which call appears in the assay record? N

For C=CC/C=C/Cc1csc(C(C)(C)C(O)C/C=C/C(=C)CCNC(=O)OC)n1 (stereo not given) , which call appears in the assay record? N

For c1ccc(-c2c(-c3cccs3)[nH]c(-c3cccs3)c2-c2ccccn2)nc1 , which call appears in the assay record? N

For CCOP(=O)(OCC)C(c1ccc(F)cc1)N(C(=O)NC(F)(F)F)c1ccc(F)cc1 (stereo not given) , which call appears in the assay record? N

For CCC(=O)COc1ccc(NC(NC(=O)C(C(F)(F)F)C(F)(F)F)(C(F)(F)F)C(F)(F)F)cc1 , which call appears in the assay record? N

For CCCCCCCCCCCCC/C=C/[C@@H](O)[C@H](COC1OC(CO)C(OC2OC(CO)C(O)C(OC3(C(=O)O)CC(O)C(NC(C)=O)C(C(O)C(O)CO)O3)C2O)C(O)C1O)N=[N+]=[N-] (stereo not given in full) , which call appears in the assay record? N

For COc1cc(C2c3cc4c(cc3OC(C)(O)C2C)OCO4)cc(OC)c1OC (stereo not given) , which call appears in the assay record? Y

For COc1cc(C(c2cc(OC)c(OC)c(OC)c2)N2C(=O)CCC2C(=O)O)cc(OC)c1OC (stereo not given) , which call appears in the assay record? N

For COc1cccc(-c2cc(O)c3cc(Cl)cnc3n2)c1 , which call appears in the assay record? Y

For CC1=CC(C)(C)NN1C1=NS(=O)(=O)c2ccccc2N1C , which call appears in the assay record? N

For O=C1c2c(Br)sc(Br)c2[C@H]2NC(=S)O[C@@H]12 , which call appears in the assay record? N

For CN1CCC(CNC(=O)CCCCCCCCC(=O)NCC2(c3ccccc3)CCN(C)CC2)(c2ccccc2)CC1 , which call appears in the assay record? N
